Tested on: Rattus norvegicus
Assay info: Inhibition of prednisilone-induced glycogen deposition in Sprague-Dawley rat at 100 mg/kg, po
Type: functional
Each entry below carries its reported inhibition in vivo at 100 mg/kg.
Value kind: inhibition in vivo at 100 mg/kg

>>> measured("CC#C[C@]1(O)CC[C@H]2[C@@H]3CCC4=CC(=O)CCC4=C3[C@@H](c3cc(C)c(OCCO[C@H]4CC[C@@]5(C)[C@@H](C4)C[C@@H](O)[C@@H]4[C@@H]5C[C@H](O)[C@]5(C)[C@@H]([C@H](C)CCC(=O)O)CC[C@@H]45)c(C)c3)C[C@@]21C")
"12%"
>>> measured("CC#C[C@]1(O)CC[C@H]2[C@@H]3CCC4=CC(=O)CCC4=C3[C@@H](c3ccc(N(C)C)cc3)C[C@@]21C [MIFEPRISTONE]")
"77%"
>>> measured("CC#C[C@]1(O)CC[C@H]2[C@@H]3CCC4=CC(=O)CCC4=C3[C@@H](c3ccc(OCCO[C@H]4CC[C@@]5(C)[C@@H](C4)C[C@@H](O)[C@@H]4[C@@H]5C[C@H](O)[C@]5(C)[C@@H]([C@H](C)CCC(=O)O)CC[C@@H]45)c(C)c3)C[C@@]21C")
"0%"

---

// Drug uptake lookup, one value per entry
System: Rattus norvegicus
Assay info: Liver concentration in Sprague-Dawley rat after 7 hrs at 100 mg/kg, po
Format: ADME, organism-based
Design: dose 100 mg/kg, route oral
Condition info: in vivo
Value kind: Drug uptake (%)

>>> measured("CC#C[C@]1(O)CC[C@H]2[C@@H]3CCC4=CC(=O)CCC4=C3[C@@H](c3ccc(OC)c(C)c3)C[C@@]21C")
18.1
>>> measured("CC#C[C@]1(O)CC[C@H]2[C@@H]3CCC4=CC(=O)CCC4=C3[C@@H](c3ccc(N(C)CCO[C@H]4CC[C@@]5(C)[C@@H](C4)C[C@@H](O)[C@@H]4[C@@H]5C[C@H](O)[C@]5(C)[C@@H]([C@H](C)CCC(=O)O)CC[C@@H]45)cc3)C[C@@]21C")
26.5
>>> measured("CC#C[C@]1(O)CC[C@H]2[C@@H]3CCC4=CC(=O)CCC4=C3[C@@H](c3ccc(N(C)C)cc3)C[C@@]21C [MIFEPRISTONE]")
26.5
>>> measured("CC#C[C@]1(O)CC[C@H]2[C@@H]3CCC4=CC(=O)CCC4=C3[C@@H](c3ccc(OCCO[C@H]4CC[C@@]5(C)[C@@H](C4)C[C@@H](O)[C@@H]4[C@@H]5C[C@H](O)[C@]5(C)[C@@H]([C@H](C)CCC(=O)O)CC[C@@H]45)c(C)c3)C[C@@]21C")
22.2

---

Assay info: Stability in rat liver microsomes after 20 mins
Type: ADME, Microsome
Condition info: read-out: Stability
Value kind: remaining at 20 min (%)

>>> measured("CC#C[C@]1(O)CC[C@H]2[C@@H]3CCC4=CC(=O)CCC4=C3[C@@H](c3ccc(OC)c(C)c3)C[C@@]21C")
87
>>> measured("CC#C[C@]1(O)CC[C@H]2[C@@H]3CCC4=CC(=O)CCC4=C3[C@@H](c3ccc(-c4ccc(OC)cc4)cc3)C[C@@]21C")
96
>>> measured("CC#C[C@]1(O)CC[C@H]2[C@@H]3CCC4=CC(=O)CCC4=C3[C@@H](c3ccc(N(C)CCO[C@H]4CC[C@@]5(C)[C@@H](C4)C[C@@H](O)[C@@H]4[C@@H]5C[C@H](O)[C@]5(C)[C@@H]([C@H](C)CCC(=O)O)CC[C@@H]45)cc3)C[C@@]21C")
98
>>> measured("CC#C[C@]1(O)CC[C@H]2[C@@H]3CCC4=CC(=O)CCC4=C3[C@@H](c3ccc(N(C)C)cc3)C[C@@]21C [MIFEPRISTONE]")
70
>>> measured("CC#C[C@]1(O)CC[C@H]2[C@@H]3CCC4=CC(=O)CCC4=C3[C@@H](c3ccc(-c4ccc(OCCO[C@H]5CC[C@@]6(C)[C@@H](C5)C[C@@H](O)[C@@H]5[C@@H]6C[C@H](O)[C@]6(C)[C@@H]([C@H](C)CCC(=O)O)CC[C@@H]56)cc4)cc3)C[C@@]21C")
100
>>> measured("CC#C[C@]1(O)CC[C@H]2[C@@H]3CCC4=CC(=O)CCC4=C3[C@@H](c3ccc(OCCO[C@H]4CC[C@@]5(C)[C@@H](C4)C[C@@H](O)[C@@H]4[C@@H]5C[C@H](O)[C@]5(C)[C@@H]([C@H](C)CCC(=O)O)CC[C@@H]45)c(C)c3)C[C@@]21C")
95
